molecular target: D1 receptors (Macaca mulatta); assay: cAMP production in C-6-mD1 cells (cloned expressed primate D1A receptors); details: C-6-mD1 cells; read-out: EC50 in stimulating synthesis of cAMP via D1 receptors
Sequence (O77680 whole entry): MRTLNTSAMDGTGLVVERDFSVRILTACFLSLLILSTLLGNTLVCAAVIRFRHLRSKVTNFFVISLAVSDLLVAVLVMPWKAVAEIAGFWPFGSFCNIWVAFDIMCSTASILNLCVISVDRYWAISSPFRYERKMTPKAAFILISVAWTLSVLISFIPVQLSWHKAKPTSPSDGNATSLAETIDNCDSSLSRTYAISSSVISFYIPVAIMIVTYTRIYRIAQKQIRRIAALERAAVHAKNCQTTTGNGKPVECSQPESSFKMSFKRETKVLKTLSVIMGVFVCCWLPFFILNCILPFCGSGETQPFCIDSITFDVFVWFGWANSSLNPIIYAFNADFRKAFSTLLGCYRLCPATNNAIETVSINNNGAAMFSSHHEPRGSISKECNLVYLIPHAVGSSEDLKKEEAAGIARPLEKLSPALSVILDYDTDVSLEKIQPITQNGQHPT
pEC50: −log10 of the molar value.
experimental-readout: pEC50

Lab note: need pEC50 with D1 receptors (Macaca mulatta) for entry Br.Oc1ccc2c(c1O)Oc1cccc3c1C2CNC3 (racemic) [dinoxyline, hydrobromide] , please look it up. > 7.52

* * *

Measured Ki on cloned human D4 receptor (Homo sapiens, UniProt P21917) follows.
Sequence (P21917 whole entry): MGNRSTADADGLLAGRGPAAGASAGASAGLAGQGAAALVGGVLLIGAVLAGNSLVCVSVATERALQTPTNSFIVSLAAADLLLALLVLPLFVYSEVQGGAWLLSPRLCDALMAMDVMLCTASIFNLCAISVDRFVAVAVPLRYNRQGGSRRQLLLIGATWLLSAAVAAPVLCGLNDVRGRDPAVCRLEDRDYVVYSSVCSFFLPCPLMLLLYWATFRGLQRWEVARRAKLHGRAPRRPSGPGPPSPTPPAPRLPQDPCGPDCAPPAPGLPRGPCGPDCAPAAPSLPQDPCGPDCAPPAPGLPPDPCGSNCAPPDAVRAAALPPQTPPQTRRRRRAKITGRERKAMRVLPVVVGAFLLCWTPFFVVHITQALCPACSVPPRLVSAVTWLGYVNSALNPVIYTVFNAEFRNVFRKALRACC

molecule: Oc1ccc2c(c1O)Cc1cccc3c1C2CNC3 (racemic) [dinapsoline, reference compound]
experimental-readout: Ki
measurement: > 1000 nM

Name the recorded Ki for Br.Oc1ccc2c(c1O)Oc1cccc3c1C2CNC3 (racemic) [dinoxyline, hydrobromide] . < 45 nM
